Target: T1, Cyno CD33 ECD-HSA (cynomolgus monkey)
T1 construct: Cyno CD33 extracellular domain fused to monomeric human serum albumin and a six-histidine tag; also called C33W1
Test: ProteOn SPR, mAb captured by anti-human Fc, 1:1 Langmuir fit
pKd: −log10 of the molar value.

>  <Binder>
C33B54 (antibody, IgG1, V domains shown, huIgG1 F405L; also called C33F59; C33H44/C33L10) VH: QVQLQQSGPGLVKPSQTLSLTCAISGDSVSSNSAAWNWIRQSPSRGLEWLGRTYYRSKWYNDYAVSVRSRITINPDTSKNQFSLQLNSVTPEDTAVYHCARETMFRGLMDYWGQGTLVTVSS VL: SYVLTQPPSVSVAPGQTARITCGGSNIGSKSVHWYQQKPGQAPVMVVYDDSDRPSGIPERFSGSNSGNTATLTISRVEAGDEADYYCQVWDSSSDVVFGGGTKLTVL

>  <pKd>
9.32

$$$$
>  <Binder>
C33B48 (antibody, IgG1, V domains shown, huIgG1 F405L; also called C33F53; C33H80/C33L73) VH: QVQLVQSGSELRKPGASVKVSCKASGYTFTNYAMNWVRQAPGQGLEWMGWINTNTGNPTYAQGFTGRFVFSLDTSVSSAYLQISSLKAEDTAMYYCATDRDRGTDYWGQGTLVTVSS VL: QSALTQPASVSGSPGQSITISCTGTSSDVGDYNYVSWYQQHPGKVPKLMIYDVSNRPSGVSNRFSGSMSGNTASLTISGLQAEDEADYYCSSYSSSSALEVFGGGTKLTVL

>  <pKd>
10.44

$$$$
>  <Binder>
C33B101 (antibody, V domains shown, huIgG1 F405L; 260 is used; also called C33F106; C33H69/C4LL152) VH: QLQLQESGPGLVKPSETLSLTCTVSGGSISSSSYYWGWIRQPPGKGLDWIGSINYSGSTYYNPSLKSRVTISVDTSKIQFSLKLRSVTAADTAVYYCARLDGYESPFDYWGQGTLVTVSS VL: DIQMTQSPSSVSASVGDRVTITCRASQGISSWLAWYQQKPGKAPKLLIYAASSLQSGVPSRFSGSGSGTDFTLTISSLQPEDFATYYCQQANSFPFTFGPGTKVDIK

>  <pKd>
8.92

$$$$
>  <Binder>
C33B63 (antibody, IgG1, V domains shown, huIgG1 F405L; also called C33F68; C33H51/C33L34) VH: QLQLQESGPGLVKPSETLSLTCTVSGGSISTGRYYWGWIRQPPGKGVIWIGNIYYSGNTYYNPSLKSRVTISVDTSKNQFSLKLNSVTAADTAVYYCARLGSLVVVPAAMSFDYWGQGTLVTVSS VL: SYELTQPPSVSVSPGQTASITCSGDKLGDKYACWYQLRPGQSPILVIYQDSNRPSGIPERFSGSNSGNTATLTISGTQAMDEADYYCQAWDSSTWVFGGGTKLTVL

>  <pKd>
8.91

$$$$
>  <Binder>
C33B125 (antibody, IgG1, V domains shown, huIgG1 F405L; also called C33F130; C33H84/C33L66) VH: QVQLVESGGGVVQPGRSLRLSCAASGFTFSSYGMHWVRQAPGKGLEWVAVISYDGSNKYYADSVKGRFTISRDNSKNTLYLQMNSLRAEDTAVYYCAKDFRSFDWLPPDSTSYYGMDVWGQGTTVTVSS VL: SYELTQPPSVSVSPGQTASITCSGDKLGDKYVCWYQQKPGQSPVVVIHQDRKRPSGIPERFSGSNFGNTATLTISGTQAMDEADYYCQAWDSSTVVFGGGTKLTVL

>  <pKd>
9.52

$$$$
>  <Binder>
C33B124 (antibody, IgG1, V domains shown, huIgG1 F405L; also called C33F129; C33H73/C33L32) VH: EVQLLESGGGLVQPGGSLRLSCAASRFTFSSYAMTWVRQAPGKGLEWVSTINISGGSTYYADSVKGRFTISRDNSKNTLYLQMNSLRAEDTAVYYCTKGGYSSGPFDYWGQGTLVSVSS VL: SYELTQPPSVSVSPGQTASITCSGDKLGDKYVRWYQQKTGQSPVLVMYQDSKRPSGIRERFYGSNSGNTATPTISGTQAVDEAEYYCQAWDSSTGVVFGGGTKLTVL

>  <pKd>
9.00

$$$$
